assay: Hygrostability test; assay type: physicochemical; conditions: 25° C./90% RH for 2 weeks, vessel left open
property measured: Weight change

[[record]]
molecule = "C/C(=N\\NC(=S)Nc1cccc(C(=O)O)c1)c1csc(-c2ccc(C(C)(C)C)cc2)c1O.NC(CO)(CO)CO [(2)]"
result = "0.00%"

[[record]]
molecule = "C/C(=N\\NC(=S)Nc1cccc(C(=O)O)c1)c1csc(-c2ccc(C(C)(C)C)cc2)c1O.NCCO [(1)]"
result = "0.29%"

[[record]]
molecule = "C/C(=N\\NC(=S)Nc1cccc(C(=O)[O-])c1)c1csc(-c2ccc(C(C)(C)C)cc2)c1O.[K+] [(4), reference compound]"
result = "23.22%"

[[record]]
molecule = "C/C(=N\\NC(=S)Nc1cccc(C(=O)[O-])c1)c1csc(-c2ccc(C(C)(C)C)cc2)c1O.C[N+](C)(C)CCO [(3)]"
result = "0.10%"


====

experiment: Thermal stability test; format: physicochemical; conditions: 60° C. for 2 weeks without humidity control, brown glass vessel
property measured: Related substance increase

[[record]]
molecule = "C/C(=N\\NC(=S)Nc1cccc(C(=O)O)c1)c1csc(-c2ccc(C(C)(C)C)cc2)c1O.NCCO [(1)]"
result = "0.16%"

[[record]]
molecule = "C/C(=N\\NC(=S)Nc1cccc(C(=O)O)c1)c1csc(-c2ccc(C(C)(C)C)cc2)c1O.NC(CO)(CO)CO [(2)]"
result = "−0.01%"

[[record]]
molecule = "C/C(=N\\NC(=S)Nc1cccc(C(=O)[O-])c1)c1csc(-c2ccc(C(C)(C)C)cc2)c1O.C[N+](C)(C)CCO [(3)]"
result = "−0.01%"

[[record]]
molecule = "C/C(=N\\NC(=S)Nc1cccc(C(=O)[O-])c1)c1csc(-c2ccc(C(C)(C)C)cc2)c1O.[K+] [(4), reference compound]"
result = "2.46%"


====

assay: Initial values of TG loss and related substances before treatment; format: physicochemical; settings: initial value before treatment; HPLC, sum of area percentages for analogues
Entries and their Related substances (%) values follow.
property measured: Related substances (%)

[[record]]
compound = "C/C(=N\\NC(=S)Nc1cccc(C(=O)O)c1)c1csc(-c2ccc(C(C)(C)C)cc2)c1O.NCCO [(1)]"
numeric_readout = 0.34

[[record]]
compound = "C/C(=N\\NC(=S)Nc1cccc(C(=O)O)c1)c1csc(-c2ccc(C(C)(C)C)cc2)c1O.NC(CO)(CO)CO [(2)]"
numeric_readout = 0.07

[[record]]
compound = "C/C(=N\\NC(=S)Nc1cccc(C(=O)[O-])c1)c1csc(-c2ccc(C(C)(C)C)cc2)c1O.[K+] [(4), reference compound]"
numeric_readout = 1.86

[[record]]
compound = "C/C(=N\\NC(=S)Nc1cccc(C(=O)[O-])c1)c1csc(-c2ccc(C(C)(C)C)cc2)c1O.C[N+](C)(C)CCO [(3)]"
numeric_readout = 0.34


====

assay: Photostability test; format: physicochemical; details: 25° C./60% RH, vessel left open, light of 200 W·hr·m^2 for 57 hours
property measured: Related substance increase (%)

[[record]]
compound = "C/C(=N\\NC(=S)Nc1cccc(C(=O)O)c1)c1csc(-c2ccc(C(C)(C)C)cc2)c1O.NC(CO)(CO)CO"
numeric_readout = 0.01

[[record]]
compound = "C/C(=N\\NC(=S)Nc1cccc(C(=O)O)c1)c1csc(-c2ccc(C(C)(C)C)cc2)c1O.NCCO"
numeric_readout = "−0.01"

[[record]]
compound = "C/C(=N\\NC(=S)Nc1cccc(C(=O)[O-])c1)c1csc(-c2ccc(C(C)(C)C)cc2)c1O.[K+] [(4), reference compound]"
numeric_readout = 0.27

[[record]]
compound = "C/C(=N\\NC(=S)Nc1cccc(C(=O)[O-])c1)c1csc(-c2ccc(C(C)(C)C)cc2)c1O.C[N+](C)(C)CCO"
numeric_readout = 0.00

